All figures here come from patent US20150322033A1.

target: GyrA(wt) + GyrB(wt) (Staphylococcus aureus, UniProt P20831); construct: made in house; host or cells: E. coli BL21(DE3); assay: DNA cleavage assay with GyrA(wt) and GyrB(wt); assay type: biochemical; conditions: IC50 (μg/mL) GyrA(wt) + GyrB(wt), Example 4, Table 14; from ratio of cleaved DNA
Sequence (P0A0K8 whole entry): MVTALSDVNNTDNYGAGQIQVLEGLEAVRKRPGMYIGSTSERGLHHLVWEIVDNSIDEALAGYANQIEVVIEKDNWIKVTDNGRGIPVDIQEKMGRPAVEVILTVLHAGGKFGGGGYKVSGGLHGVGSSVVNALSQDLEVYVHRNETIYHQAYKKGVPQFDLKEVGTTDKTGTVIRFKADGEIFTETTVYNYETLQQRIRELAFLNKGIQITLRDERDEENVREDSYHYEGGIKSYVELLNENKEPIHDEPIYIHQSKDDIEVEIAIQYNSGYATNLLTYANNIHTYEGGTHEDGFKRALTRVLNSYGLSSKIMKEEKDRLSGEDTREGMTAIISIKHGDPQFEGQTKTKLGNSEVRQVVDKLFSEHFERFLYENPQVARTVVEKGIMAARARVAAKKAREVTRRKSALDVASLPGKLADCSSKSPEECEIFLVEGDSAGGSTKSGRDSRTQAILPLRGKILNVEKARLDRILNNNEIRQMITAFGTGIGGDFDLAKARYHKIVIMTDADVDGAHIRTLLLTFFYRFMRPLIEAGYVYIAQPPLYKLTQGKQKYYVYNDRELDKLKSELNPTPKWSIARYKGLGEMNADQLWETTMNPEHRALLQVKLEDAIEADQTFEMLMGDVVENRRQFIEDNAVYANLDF
Sequence (P20831 whole entry): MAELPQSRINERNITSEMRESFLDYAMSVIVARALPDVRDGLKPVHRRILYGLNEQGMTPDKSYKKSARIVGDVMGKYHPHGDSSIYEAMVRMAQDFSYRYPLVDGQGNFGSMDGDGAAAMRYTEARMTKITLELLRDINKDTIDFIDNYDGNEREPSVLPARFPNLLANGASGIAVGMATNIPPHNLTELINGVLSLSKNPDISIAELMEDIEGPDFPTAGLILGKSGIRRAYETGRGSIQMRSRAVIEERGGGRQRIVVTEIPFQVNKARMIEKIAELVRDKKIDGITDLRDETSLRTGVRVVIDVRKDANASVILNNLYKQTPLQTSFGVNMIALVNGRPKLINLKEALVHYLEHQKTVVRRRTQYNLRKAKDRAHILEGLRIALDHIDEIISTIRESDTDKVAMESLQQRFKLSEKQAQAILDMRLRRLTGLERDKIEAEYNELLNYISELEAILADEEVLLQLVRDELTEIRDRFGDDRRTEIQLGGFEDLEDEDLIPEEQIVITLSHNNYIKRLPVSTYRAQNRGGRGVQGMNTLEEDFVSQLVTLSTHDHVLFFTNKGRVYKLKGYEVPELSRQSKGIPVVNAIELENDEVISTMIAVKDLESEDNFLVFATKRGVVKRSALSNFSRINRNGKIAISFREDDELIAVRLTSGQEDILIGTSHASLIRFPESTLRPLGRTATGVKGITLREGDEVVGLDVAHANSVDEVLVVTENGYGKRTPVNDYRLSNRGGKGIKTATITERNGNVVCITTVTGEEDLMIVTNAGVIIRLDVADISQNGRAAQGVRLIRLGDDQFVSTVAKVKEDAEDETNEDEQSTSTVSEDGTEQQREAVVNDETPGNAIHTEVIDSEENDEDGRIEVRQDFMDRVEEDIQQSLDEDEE
Measurement Label: IC50

May I ask what IC50 has been recorded for O=c1cc(-c2ccc(O)cc2)oc2cc(O)cc(O)c12 [No. 7, 4′,5,7-Trihydroxyflavone] ?
> 474 µM

====

test system: S. aureus Mu50 NR1-1; experiment: MIC by broth microdilution, S. aureus Mu50 NR1-1; format: cell-based; details: Staphylococcus aureus, MU50NR11; Example 3, Table 13; read-out: MIC (mg/L) Mu50 NR1-1 (S80F, w)
Measurement Label: MIC (mg/L)
Numbers only, in mg/L.

The examples below pair each entry with its known result.
Compound	Target Or System	MIC / mg/L
COc1cc(O)c2c(=O)c(OC)c(-c3ccc(O)c(OC)c3)oc2c1	S. aureus Mu50 NR1-1	128
O=c1cc(-c2ccc(O)c(O)c2)oc2cc(O)cc(O)c12 [No. 6, 3′,4′,5,7-Tetrahydroxyflavone]	S. aureus Mu50 NR1-1	32
CCn1cc(C(=O)O)c(=O)c2cc(F)c(N3CCNCC3)cc21 [Norfloxacin, norfloxacin, reference compound]	S. aureus Mu50 NR1-1	16

Hi! Can you tell me MIC for each of these compounds?
1. O.O=c1c(O)c(-c2ccc(O)c(O)c2)oc2cc(O)cc(O)c12 [No. 1, 3,3′,4′,5,7-Pentahydroxyflavone Hydrate]
2. O.O=c1c(O)c(-c2ccc(O)cc2)oc2cc(O)cc(O)c12 [No. 4, 3,4′,5,7-Tetrahydroxyflavone Hydrate]
3. COc1ccc2c(=O)cc(-c3ccccc3)oc2c1
4. COc1cc(O)c2c(=O)c(OC)c(-c3cc(O)c(OC)c(OC)c3)oc2c1
5. C[C@H]1COc2c(N3CCN(C)CC3)c(F)cc3c(=O)c(C(=O)O)cn1c23 [Levofloxacin, levofloxacin, reference compound]

[64, 16, 128, 128, 1]

Lab note: need MIC with S. aureus Mu50 NR1-1 for entry `COc1cc(-c2oc3c(OC)c(O)cc(O)c3c(=O)c2O)ccc1O` , please look it up.
64

====

Assignment: determine reported MIC for the given compounds.
test system: S. aureus FDA209P (ATCC 6538P); assay: microbe, parasite or virus in culture; type: cell-based, Staphylococcus aureus; settings: Staphylococcus aureus; Example 2, Table 12; read-out: MIC (mg/L) S. aureus FDA209P
Answers are plain numbers, in mg/L.

Compound	Assay Result
O.O=c1c(O)c(-c2ccc(O)cc2)oc2cc(O)cc(O)c12 [No. 4, 3,4′,5,7-Tetrahydroxyflavone Hydrate]	16
COc1cc(O)c2c(=O)c(OC)c(-c3cc(O)c(OC)c(OC)c3)oc2c1	128
COc1cc(-c2oc3c(OC)c(O)cc(O)c3c(=O)c2O)ccc1O	128
CCn1cc(C(=O)O)c(=O)c2cc(F)c(N3CCNCC3)cc21 [Norfloxacin, norfloxacin, reference compound]	0.5
COc1ccc2c(=O)cc(-c3ccccc3)oc2c1	128

Hi! Can you tell me MIC for each of these compounds?
1. O=c1cc(-c2ccc(O)c(O)c2)oc2cc(O)cc(O)c12 [No. 6, 3′,4′,5,7-Tetrahydroxyflavone]
2. O.O=c1c(O)c(-c2ccc(O)c(O)c2)oc2cc(O)cc(O)c12 [No. 1, 3,3′,4′,5,7-Pentahydroxyflavone Hydrate]
3. COc1cc(O)c2c(=O)c(OC)c(-c3ccc(O)c(OC)c3)oc2c1
4. C[C@H]1COc2c(N3CCN(C)CC3)c(F)cc3c(=O)c(C(=O)O)cn1c23 [Levofloxacin, levofloxacin, reference compound]
5. COc1ccc2c(=O)cc(-c3ccc(O)cc3)oc2c1

32
64
128
0.125
128
